Test method notes: Oxygen Radical Activity Capacity (ORAC) assay
Assay conditions: slope of sample divided by slope of Trolox, ORAC after 60 min, mean ± SD, n = 3
Assay endpoint: TEs (Trolox equivalents) (TE)
Numbers only, in TE.

Solved cases below.
> print(dat)
                                   molecule  recorded.measurement
1  Cc1c(C)c2c(c(C)c1O)CCC(C)(C(=O)Nc1nc3ccccc3o1)O2 (stereo not drawn)                  1.70
2  Cc1c(C)c2c(c(C)c1O)CCC(C)(C(=O)NCc1ccc(S(N)(=O)=O)cc1)O2 (stereo not drawn)                  1.28

// for each molecule in input: emit TEs (Trolox equivalents)
1. Cc1c(C)c2c(c(C)c1O)CCC(C)(C(=O)Nc1ncc[nH]1)O2 (stereo not drawn)
2. O=C(Cc1ccccc1)NCc1ccc(C(=O)NO)cc1
3. Cc1c(C)c2c(c(C)c1O)CCC(C)(C(=O)O)O2 (stereo not drawn)
4. Cc1c(C)c2c(c(C)c1O)CCC(C)(C(=O)NNC(=O)c1ccc(Cl)cc1)O2 (stereo not drawn)

Reply:
1: 1.25; 2: 1.13; 3: 1.0; 4: 1.47
